The values you see were collected from ChEMBL document CHEMBL1955793.

- Tested on: Hepatitis C virus
- Assay Text: Inhibition of Hepatitis C virus genotype 1b NS5B polymerase
- Design: species or system Hepatitis C virus subtype 1b
pIC50: −log10 of the molar value.
Please use fulfilled whenever pIC50 is not below 6, and not fulfilled whenever it is.

INSERT INTO measurements (smiles_structure, target_or_system, assigned_category) VALUES
  ('O=c1c(C2=NS(=O)(=O)c3ccccc3N2)c(O)c2ccccc2n1NC1CCCCC1', 'Hepatitis C virus', 'fulfilled');

[ask] Quick check, pIC50 >= 6? CCC(CC)Nn1c(=O)c(C2=NS(=O)(=O)c3ccccc3N2)c(O)c2ccccc21
[reply] fulfilled

[ask] For this compound, is measured pIC50 6 or higher? CCCCNn1c(=O)c(C2=NS(=O)(=O)c3ccccc3N2)c(O)c2ccccc21
[reply] fulfilled

[ask] Hi, just wondering whether Cc1cccc(CNn2c(=O)c(C3=NS(=O)(=O)c4ccccc4N3)c(O)c3ccccc32)c1 shows pIC50 of 6 or higher.
[reply] fulfilled

[ask] Quick check: does CC(C)CNn1c(=O)c(C2=NS(=O)(=O)c3ccccc3N2)c(O)c2ccccc21 have pIC50 greater than or equal to 6?
[reply] fulfilled

[ask] Decide: is the reported value of pIC50 for O=c1c(C2=NS(=O)(=O)c3ccccc3N2)c(O)c2ccccc2n1NCc1ccc(Br)cc1 equal to or greater than 6?
[reply] not fulfilled
